All figures here come from the supplement of paper PMC10646978.

Test system: RAW-Dual (murine macrophage reporter line)
ASSAY_INFO: NF-kB reporter (SEAP) activity fold change vs agonist alone; higher = enhanced NF-kB activity
STATED_CONDITIONS: modulator concentration 10 µM; agonist: CpG ODN 1826 0.5 ug/mL

>  <MOLECULE>
Oc1ccc(/C=C/c2cc(O)cc(O)c2)cc1

>  <EXPERIMENTAL_TARGET>
RAW-Dual (murine macrophage reporter line)

>  <NF-kB reporter>
1.06

$$$$
>  <MOLECULE>
N#CC1=C(NC(=S)NC(=O)c2ccccc2)c2ccccc2CC12CCCCC2

>  <EXPERIMENTAL_TARGET>
RAW-Dual (murine macrophage reporter line)

>  <NF-kB reporter>
0.818

$$$$
>  <MOLECULE>
CC1CN(C2=NC(=O)C(=Cc3ccc(-c4ccccc4Cl)o3)S2)CC(C)O1 (stereo unspecified)

>  <EXPERIMENTAL_TARGET>
RAW-Dual (murine macrophage reporter line)

>  <NF-kB reporter>
0.495

$$$$
>  <MOLECULE>
Cc1cccc(C)c1NC(=O)CC(C)c1ccccc1 (stereo unspecified)

>  <EXPERIMENTAL_TARGET>
RAW-Dual (murine macrophage reporter line)

>  <NF-kB reporter>
0.982

$$$$
>  <MOLECULE>
O=C(COC(=O)c1ccc(Cl)c([N+](=O)[O-])c1)c1ccc(Cl)cc1

>  <EXPERIMENTAL_TARGET>
RAW-Dual (murine macrophage reporter line)

>  <NF-kB reporter>
0.942

$$$$
>  <MOLECULE>
Fc1ccc(Oc2nc(Nc3cccc(Cl)c3)nc(N3CCOCC3)n2)cc1

>  <EXPERIMENTAL_TARGET>
RAW-Dual (murine macrophage reporter line)

>  <NF-kB reporter>
0.331

$$$$
